The entries below come with measured switch fluorescence ratio values attached.
- Test system: ATP;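 note: ATP exposure 15 min at 22 °C before imaging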
- methodDescription: switch fluorescence ratio, 500 uM ATP over buffer (Cy3 cluster intensity, sum of 5 cycles each) (fold (ratio)); higher = stronger signal-on switching upon ATP binding; sequences stand for … in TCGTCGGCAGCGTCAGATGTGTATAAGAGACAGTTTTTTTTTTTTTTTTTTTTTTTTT…TC
- particulars: aptamer strand: ATP DNA aptamer (quencher-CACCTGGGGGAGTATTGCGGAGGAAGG + anchor), 100 nM annealed; ATP concentration: 500 uM
attributeMeasured: switch fluorescence ratio

itemsequence=TTGTAGTCGG assayresult=1
itemsequence=TATGATGCAT assayresult=0.991
itemsequence=ATGTGGATGC assayresult=0.98
itemsequence=GGGCGGGTTT assayresult=1.01
itemsequence=CGGTATTTAA assayresult=1.02
itemsequence=TTATAAAAAG assayresult=0.974
itemsequence=ACATTTTTAG assayresult=1.01
itemsequence=ACGGTGCCAA assayresult=1.02
itemsequence=TTGTGGAACG assayresult=0.989
